Source: ChEMBL document CHEMBL6153047

Experiment: Aqueous solubility of compound at pH 6.8 incubated for 24 hrs by LC-UV analysis
Format: physicochemical
Settings: buffer, pH 6.8, 24 h
MEASUREMENT_TYPE: solubility

Inquiry: Tell me the measured solubility of Cc1ccc(S(=O)(=NC(=O)C(C)(C)C)c2ccccc2)cc1 (stereo not given) , please.
Reply text: < 1 µg/mL

Inquiry: Another compound to look at: Cc1ccc(S(=N)C2CC2)cc1 (stereo not given)
Reply text: 27 µg/mL

Inquiry: Another compound to look at: CCOC(=O)/C(=S(/NC(=O)C(C)(C)C)c1ccccc1)P(=O)(OCC)OCC (stereo not given)
Reply text: > 87 µg/mL

Inquiry: Another compound to look at: CC(=O)/N=S(\c1ccc(C(F)(F)F)cc1)C1CC1 (stereo not given)
Reply text: 38 µg/mL

Inquiry: Another compound to look at: CS(=O)(=O)c1ccc(C(F)(F)F)cc1
Reply text: > 47 µg/mL

====

Experiment: Lipophilicity, logD of compound at pH 7.4 by UPLC-UV-MS analysis
Type: physicochemical
Details: buffer, read-out: logD
MEASUREMENT_TYPE: logD

Inquiry: Tell me the measured logD of Cc1ccc(S(=N)C2CC2)cc1 (stereo unspecified) , please.
Reply text: 0.3

====

Test: Aqueous solubility of compound at pH 6.8 incubated for 24 hrs by LC-UV analysis
Type: physicochemical
Settings: buffer, pH 6.8, 24 h
Quick list: solubility per entry.
Write down the numeric answer in µg/mL and omit the unit.

// solved cases for solubility follow
• N=S(c1ccc(C(F)(F)F)cc1)c1cccnc1 (configuration not stated) = 49
• FC(F)(F)c1ccc(/S(=N\c2ccccc2)C2CC2)cc1 (configuration not stated) = 41
• N#C/N=S(\c1ccc(C(F)(F)F)cc1)C1CC1 (configuration not stated) = 42
• CC(C)(C)C(=O)/N=S(\c1ccc(C(F)(F)F)cc1)C1CC1 (configuration not stated) = 51
• COc1ccc(/S(=N/C(=O)C(C)(C)C)c2ccc(C)cc2)cc1 (configuration not stated) = 59
• Cc1ccc(NC(=O)c2ccc(P(C)(C)=O)cc2)cc1Nc1nccc(-c2cccnc2)n1 = 58

Now look at this one.
Inquiry: Tell me the measured solubility of COC(=O)/N=S(\c1ccc(C(F)(F)F)cc1)C1CC1 (configuration not stated) , please.
Reply text: 26

====

Test: Lipophilicity, logD of compound at pH 7.4 by UPLC-UV-MS analysis
Type: physicochemical
Conditions: buffer
MEASUREMENT_TYPE: logD
// response body must contain only the number

// solved cases for logD follow
• Cc1ccc(S(=O)(=NC(=O)C(C)(C)C)c2ccccc2)cc1 (stereo not given) = 4.2
• COC(=O)C(C(=O)OC)=S(NC(=O)C(C)(C)C)c1ccccc1 (stereo not given) = 2.5
• COc1ccc(/S(=N/C(=O)C(C)(C)C)c2ccc(C)cc2)cc1 (stereo not given) = 4
• CC(C)(C)C(=O)/N=S(\c1ccc(C(F)(F)F)cc1)C1CC1 (stereo not given) = 3.5

Now look at this one.
Inquiry: Tell me the measured logD of CC(=O)/N=S(\c1ccc(C(F)(F)F)cc1)C1CC1 (stereo not given) , please.
Reply text: 1.7

====

Assay: Stability in human liver microsomes assessed as hepatic extraction ratio at 1 uM preincubated with compound followed by NADPH addition by LC-MS/MS analysis
Assay type: ADME, Microsome
Details: read-out: ERH
MEASUREMENT_TYPE: hepatic extraction ratio at 1 µM
// response body must contain only the number

• COc1ccc(/S(C)=N\C(=O)C(C)(C)C)cc1 (stereo not given) = 0.27

Inquiry: Tell me the measured hepatic extraction ratio at 1 µM of Cc1ccc(S(=N)(=O)c2ccccc2)cc1 (stereo not given) , please.
Reply text: 0.45
